Assay: General and physiochemical properties of MCAL-201 (solubility, hygroscopicity)
Format: physicochemical
Settings: castor oil, oil or lipid; read-out: Solubility in castor oil
value-kind: solubility (mg/mL)
Numeric answer only, unit mg/mL assumed.

Name the recorded solubility of the compound listed here: CCCCCCCCCCCCCCCCCCCCOCC(CO)OC(=O)CCCCCCCCCCCCCCC (racemic) [MCAL-201, 1-O-eicosanyl-2-palmitoyl-rac-glycerol]
25

* * *

Assay: General and physiochemical properties of MCAL-201 (solubility, hygroscopicity)
Type: physicochemical
Conditions: chloroform, organic solvent or mixture; read-out: Solubility in chloroform
value-kind: solubility (mg/mL)
Numeric answer only, unit mg/mL assumed.

Name the recorded solubility of the compound listed here: CCCCCCCCCCCCCCCCCCCCOCC(CO)OC(=O)CCCCCCCCCCCCCCC (racemic) [MCAL-201, 1-O-eicosanyl-2-palmitoyl-rac-glycerol]
40
